# Experiment notes: chemical genetic growth profiling, strain panel (AID 1159580);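 further: tested at 20 µM; growth read once vehicle control cultures reached saturation at 30 °C; 1 = growth at the plate median or of vehicle wells; lower values mean less growth of the strain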
# Test settings: S. cerevisiae deletion strains, growth OD, locus YJL157C, strain FAR1, active compounds read low
Out of some 5,500 compounds screened, about 2,000 (36%) were called active. Inconclusive results (about 18%) are left out. This is one part of the list.
Lab note: compare normalized growth with 0.9, writing true (1) if less and false (0) if equal or more.

CCOC(=O)C1=C(N)OC2=C(C(=O)CC(C)(C)C2)C1c1ccc(Cl)cc1Cl (stereo unspecified) ... false (0)
O=c1c(Cl)c(-n2cccn2)cnn1-c1ccc(Cl)cc1Cl ... true (1)
O=C1CSC(c2cccnc2)N1c1ccc(Cl)cc1Cl (stereo unspecified) ... false (0)
N#CC(C#N)=C/C=C(/Sc1nc2ccccc2s1)c1ccc(Br)cc1 ... true (1)
COC(=O)C1=C(C)NC(C)=C(C(=O)OC)C1c1ccc(Cl)cc1Cl ... false (0)

* * *

Readings of normalized growth for the listed molecules
# Experiment notes: chemical genetic growth profiling, strain panel (AID 1159580)
# Test settings: S. cerevisiae deletion strains, growth OD, locus YKR001C, strain vps1, active compounds read low
Out of some 5,500 compounds screened, about 2,000 (36%) were called active. Roughly 18% stayed inconclusive and do not appear here. This is one part of the list.
Readout: normalized growth

Cc1occc(=O)c1/C=C/O ... 1.01
Oc1c(I)cc(I)c2cccnc12 ... 0.1
C1CCN2C[C@@H]3C[C@H](CN4CCCC[C@@H]34)[C@H]2C1 ... 0.996
Nc1ccc(S(=O)(=O)Nc2ccccn2)cc1 ... 0.995
O=[N+]([O-])c1cc(O)c(O)c([N+](=O)[O-])c1 ... 1
Cc1occc(=O)c1O ... 1.03
O=[N+]([O-])c1ccc(O)c([N+](=O)[O-])c1 ... 0.691
c1ccc2c3c([nH]c2c1)CNCC3 ... 1.02
CN[C@H](CC(=O)O)C(=O)O ... 0.989
C=C[C@@H](C1=CC(=O)C(OC)=C(OC)C1=O)c1ccccc1 ... 0.158
C[C@H]1[C@H]2CCC3C4CC=C5C[C@@H](N(C)C)CC[C@]5(C)C4CC[C@@]32CN1C (stereo partly specified) ... 0.989
COc1ccccc1OCCNCC(O)COc1cccc2[nH]c3ccccc3c12 (stereo unspecified) ... 1.05
CC(C)(C)NCC(O)c1ccccc1Cl (stereo unspecified) ... 0.976
CC(=O)Oc1ccc(Cl)c2cccnc12 ... 0.0643
O=C1CCCC2C3CC(CN12)[C@@H]1CCCCN1C3 (stereo partly specified) ... 1.01
NCC(CC(=O)O)c1ccc(Cl)s1 (stereo unspecified) ... 0.947
O=C1C=CC2=C3c4cc(O)c(O)cc4CC3(O)COC2=C1O (stereo unspecified) ... 1.06
CCN(CC)CCNC(=O)c1cc(S(C)(=O)=O)ccc1OC ... 1.01
C[n+]1cccc(C(=O)[O-])c1 ... 0.987
C=CC(C1=CC(=O)C(OC)=CC1=O)c1ccc(OC)cc1 (stereo unspecified) ... 0.814
O=C(O)/C=C/C=C/c1ccccc1 ... 0.792
CCC[C@H]1CC2=C(C[C@@H](CC)CC3=C1C(=O)OC3=O)C(=O)OC2=O ... 1.02
CC1(C)C(C(Cl)Cl)C2(Cl)C(Cl)C(Cl)C1(Cl)C2(Cl)Cl (stereo unspecified) ... 0.964
CCCc1occc(=O)c1/C=C/O ... 0.85
C=CC(C1=CC(=O)C(OC)=CC1=O)c1ccccc1 (stereo unspecified) ... 0.774
COC(=O)[C@]1(C)CC[C@]2(C)CC[C@]3(C)C4=CCc5c(cc(O)c(O)c5C)[C@]4(C)CC[C@@]3(C)C2C1 (stereo partly specified) ... 0.937

* * *

# Experiment notes: chemical genetic growth profiling, strain panel (AID 1159580)
# Test settings: S. cerevisiae deletion strains, growth OD, locus YAL013W, strain DEP1, active compounds read low
The campaign covered roughly 5,500 compounds. About 2,000 (36%) were called active. Not shown: some 18% with an inconclusive outcome. This is one part of the list.
Lab note: compare normalized growth with 1, writing Fulfilled if less and Not fulfilled if equal or more.

Oc1c(Cl)cc(Cl)c2cccnc12 ... Fulfilled
CC/C(=C(\c1ccccc1)c1ccc(OCCN(C)C)cc1)c1ccccc1 ... Fulfilled
CC(=O)Oc1ccc(Cl)c2cccnc12 ... Fulfilled
Clc1cc(Cl)c(Cl)c(-n2cccc2)c1Cl ... Fulfilled
Cc1cccc(C)c1NC(=O)C[N+](C)(C)C ... Not fulfilled
NC(=S)N/N=C\c1ccc(F)c(Cl)c1 ... Fulfilled
C[C@H](Cc1ccc(O)c(O)c1)[C@@H](C)Cc1ccc(O)c(O)c1 ... Fulfilled
CCN(CC)CCOc1ccc(/C(=C(\Cl)c2ccccc2)c2ccccc2)cc1 ... Fulfilled
CCN1CCc2nc(N)oc2CC1 ... Not fulfilled
COc1ccc(NS(=O)(=O)c2c(C)noc2C)cc1 ... Not fulfilled
N#Cc1c(N)sc2c1CCCCC2 ... Fulfilled

* * *

Readings of normalized growth for the listed molecules
# Experiment notes: chemical genetic growth profiling, strain panel (AID 1159580)
# Test settings: S. cerevisiae deletion strains, growth OD, locus YBR009C, strain hhf1, active compounds read low
Out of some 5,500 compounds screened, about 2,000 (36%) were called active. Roughly 18% stayed inconclusive and do not appear here. The list shows a part of the results.
Readout: normalized growth

CCN(CC)CCOc1ccc2c(c1)C(=O)c1cc(OCCN(CC)CC)ccc1-2 ... 0.993
CC/C(=C(\c1ccccc1)c1ccc(OCCN(C)C)cc1)c1ccccc1 ... 0.0625
CN(C)CCOC(C)(c1ccccc1)c1ccccn1 (stereo unspecified) ... 1
COc1ccc(C(Cl)=C(c2ccc(OC)cc2)c2ccc(OC)cc2)cc1 ... 1.01
COC(=O)C[C@H]1C(C)(C)C(=O)[C@@H]2CC3=C4CC(=O)O[C@@H](c5ccoc5)[C@]4(C)CCC3[C@@]1(C)C2=O (stereo partly specified) ... 0.987
CCN(CC)CCOc1ccc(/C(=C(\Cl)c2ccccc2)c2ccccc2)cc1 ... 0.0875

* * *

# Experiment notes: chemical genetic growth profiling, strain panel (AID 1159580);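 further: tested at 20 µM; growth read once vehicle control cultures reached saturation at 30 °C; 1 = growth at the plate median or of vehicle wells; lower values mean less growth of the strain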
# Test settings: S. cerevisiae deletion strains, growth OD, locus YDL017W, strain CDC7, active compounds read low
Among all 5,500 compounds or so, about 2,000 (36%) were called active. About 18% were inconclusive and are not listed. Some of the results follow.
Readings of normalized growth for the listed molecules
Readout: normalized growth

COC(=O)C1=C(C)NC(C)=C(C(=O)OC)C1c1ccc(Cl)cc1Cl ... 0.979
CC(C)c1ccc(NCC(O)CSc2ccccc2)cc1 (stereo unspecified) ... 0.969
O=[N+]([O-])/C=C/c1ccsc1 ... 0.0862
CCOC(=O)C1=C(N)OC2=C(C(=O)CC(C)(C)C2)C1c1ccc(Cl)cc1Cl (stereo unspecified) ... 0.978
CCCc1c(C(=O)NC2Cc3ccccc3C2)cnn1-c1ccccc1 ... 0.999
CC(=O)Nc1ccc(/C=C/[N+](=O)[O-])cc1 ... 0.98

* * *

Readings of normalized growth for the listed compounds
# Experiment notes: chemical genetic growth profiling, strain panel (AID 1159580);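 further: tested at 20 µM; growth read once vehicle control cultures reached saturation at 30 °C; 1 = growth at the plate median or of vehicle wells; lower values mean less growth of the strain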
# Test settings: S. cerevisiae deletion strains, growth OD, locus YJR043C, strain POL32, active compounds read low
In all, about 5,500 compounds went through this assay and about 2,000 (36%) were called active. Another 18% or so got no clear call; they are omitted. Some of the results follow.
Readout: normalized growth

CC1(C)C(=O)C=C[C@@]2(C)C1=C(O)C(=O)[C@]1(C)C2CC[C@@]2(C)[C@H](c3ccoc3)C[C@H]3O[C@]321 (stereo partly specified) ... 0.781
CN1CCN(C=Nc2ncc(C(F)(F)F)cc2Cl)CC1 ... 0.996
N#Cc1c(N)sc2c1CCCCC2 ... 0.992
CC(=O)O[C@@H]1C[C@@]2(C)[C@H](c3ccoc3)C[C@H]3O[C@]32[C@]2(C)C(=O)C(O)=C3C(C)(C)C(=O)C=C[C@]3(C)C12 (stereo partly specified) ... 0.97
CSCCC(NC=O)C(=O)NC(C)C(=O)O (stereo unspecified) ... 1.02
CN(/N=C\c1ccccc1)c1ncc(C(F)(F)F)cc1Cl ... 0.99

* * *

Readings of normalized growth for the listed compounds
# Experiment notes: chemical genetic growth profiling, strain panel (AID 1159580);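 further: tested at 20 µM; growth read once vehicle control cultures reached saturation at 30 °C; 1 = growth at the plate median or of vehicle wells; lower values mean less growth of the strain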
# Test settings: S. cerevisiae deletion strains, growth OD, locus YBR021W, strain FUR4, active compounds read low
The whole screen tested about 5,500 compounds, of which about 2,000 (36%) were called active. Inconclusive results (about 18%) are left out. The list shows a part of the results.
Readout: normalized growth

COC(=O)[C@]1(C)CC[C@]2(C)CC[C@]3(C)C4=CCc5c(cc(O)c(O)c5C)[C@]4(C)CC[C@@]3(C)C2C1 (stereo not given in full) ... 0.985
Cc1c(O)c(O)cc2c1CC=C1[C@@]2(C)CC[C@@]2(C)C3C[C@](C)(C(=O)O)CC[C@]3(C)CC[C@]12C (stereo not given in full) ... 1
Nc1nc2ncc(C(=O)O)nc2c(=O)[nH]1 ... 1
COc1c2c(cc3c1OCO3)CCN(C)C2 ... 0.988
OC[C@@H](O)[C@@H](O[C@@H]1O[C@H](CO)[C@@H](O)[C@H](O)[C@H]1O)[C@H](O)[C@@H](O)CO ... 1.03
